- condition-notes: pH 2.7
# LogP per record follows
Number only, please.

Completed entries (count: 7):
{"compound": "CC#CCOC(=O)Nc1nc(CO/N=C(/c2ccccc2)c2nc(=O)on2C)cs1", "observed-property": "LogP", "result": 2.66}
{"compound": "CC(COc1ccccc1)OC(=O)Nc1nc(CON=C(c2ccccc2)c2nc(=O)on2C)cs1 (centres unmarked)", "observed-property": "LogP", "result": 3.46}
{"compound": "CC(C)[C@@H]1CC[C@@H](C)C[C@H]1OC(=O)Nc1nc(CO/N=C(/c2ccccc2)c2nc(=O)on2C)cs1", "observed-property": "LogP", "result": 4.91}
{"compound": "Cn1oc(=O)nc1C(=NOCc1csc(NC(=O)C2CCc3ccccc3C2)n1)c1ccccc1 (centres unmarked)", "observed-property": "LogP", "result": 3.55}
{"compound": "CC(C)C(C)OC(=O)Nc1nc(CO/N=C(/c2ccccc2)c2nc(=O)on2C)cs1 (racemic)", "observed-property": "LogP", "result": 3.35}
{"compound": "Cn1oc(=O)nc1C(=NOCc1csc(NC(=O)C(C)(C)C)n1)c1ccccc1", "observed-property": "LogP", "result": 2.84}
{"compound": "CC(OC(=O)Nc1nc(CON=C(c2ccccc2)c2nc(=O)on2C)cs1)C(C)(C)C (centres unmarked)", "observed-property": "LogP", "result": 3.65}

Reported LogP ( CCCCC(C)C(=O)Nc1nc(CO/N=C(/c2ccccc2)c2nc(=O)on2C)cs1 (racemic) ) = 3.42
